Test system: Ba/F3 cells transfected to express Bcr-Abl F317L (p210)
measurement-description: cells
assay-setup: Mus musculus, BaF3, read-out: Proliferation IC50
pIC50: −log10 of the molar value.
assay-readout: pIC50

* Cc1cn(-c2cc(NC(=O)c3ccc(C)c(Nc4nccc(-c5cccnc5)n4)c3)cc(C(F)(F)F)c2)cn1 [AMN107] | 7.04

* * *

Tested on: Ba/F3 cells transfected to express Bcr-Abl A380S (p185)
measurement-description: cells
assay-setup: Mus musculus, BaF3, read-out: Proliferation IC50
pIC50: −log10 of the molar value.
assay-readout: pIC50

* Cc1cn(-c2cc(NC(=O)c3ccc(C)c(Nc4nccc(-c5cccnc5)n4)c3)cc(C(F)(F)F)c2)cn1 | 6.79

* * *

Tested on: Ba/F3 cells transfected to express Bcr-Abl E275K (p185)
measurement-description: cells
assay-setup: Mus musculus, BaF3, read-out: Proliferation IC50
assay-readout: IC50

• Cc1cn(-c2cc(NC(=O)c3ccc(C)c(Nc4nccc(-c5cccnc5)n4)c3)cc(C(F)(F)F)c2)cn1 [AMN107] = 44 nM

* * *

System: Ba/F3 cells transfected to express Bcr-Abl E255K (p185)
measurement-description: cells
assay-setup: Mus musculus, BaF3, read-out: Proliferation IC50
pIC50: −log10 of the molar value.
assay-readout: pIC50

* Cc1cn(-c2cc(NC(=O)c3ccc(C)c(Nc4nccc(-c5cccnc5)n4)c3)cc(C(F)(F)F)c2)cn1 [AMN107] | 6.51

* * *

System: Ba/F3 cells transfected to express Bcr-Abl Wild-type p210
measurement-description: cells
assay-setup: Mus musculus, BaF3, read-out: Proliferation IC50
assay-readout: IC50

- Cc1cn(-c2cc(NC(=O)c3ccc(C)c(Nc4nccc(-c5cccnc5)n4)c3)cc(C(F)(F)F)c2)cn1: 25 nM

* * *

Test system: Ba/F3 cells transfected to express Bcr-Abl L387F (p185)
measurement-description: cells
assay-setup: Mus musculus, BaF3, read-out: Proliferation IC50
pIC50: −log10 of the molar value.
assay-readout: pIC50

- Cc1cn(-c2cc(NC(=O)c3ccc(C)c(Nc4nccc(-c5cccnc5)n4)c3)cc(C(F)(F)F)c2)cn1: 7.34

* * *

Tested on: Ba/F3 cells transfected to express Bcr-Abl E281K (p185)
measurement-description: cells
assay-setup: Mus musculus, BaF3, read-out: Proliferation IC50
pIC50: −log10 of the molar value.
assay-readout: pIC50

* Cc1cn(-c2cc(NC(=O)c3ccc(C)c(Nc4nccc(-c5cccnc5)n4)c3)cc(C(F)(F)F)c2)cn1 | 7.40

* * *

Tested on: Ba/F3 cells transfected to express Bcr-Abl F359V (p185)
measurement-description: cells
assay-setup: Mus musculus, BaF3, read-out: Proliferation IC50
assay-readout: IC50 (nM)

- Cc1cn(-c2cc(NC(=O)c3ccc(C)c(Nc4nccc(-c5cccnc5)n4)c3)cc(C(F)(F)F)c2)cn1: 161

* * *

Test system: Ba/F3 cells transfected to express Bcr-Abl F486S (p210)
measurement-description: cells
assay-setup: Mus musculus, BaF3, read-out: Proliferation IC50
assay-readout: IC50 (nM)

• Cc1cn(-c2cc(NC(=O)c3ccc(C)c(Nc4nccc(-c5cccnc5)n4)c3)cc(C(F)(F)F)c2)cn1 = 75

Hey, just so you know, these numbers are from paper PMC2361347.
